Tested on: barnyardgrass (Echinochloa crus-galli)
Assay: Test B pre-/postemergence plant response
Assay type: in vivo
Conditions: 31 g ai/ha, Preemergence; 0 to 100 scale where 0 is no effect and 100 is complete control
# Plant response rating, Barnyardgrass annotations
# print the numeric value only

Cn1nc(-c2ccccc2Oc2ncc(Cl)cn2)cc1C(F)(F)F [Compound 237] :: 0
N#Cc1cc(-c2ccccc2Oc2ncc(Cl)cn2)on1 [Compound 223] :: 0
Fc1ccc(Oc2ncc(Cl)cn2)c(-c2cc(C(F)F)on2)c1F [Compound 113] :: 70
Clc1cnc(Oc2ccccc2-c2cc(Cl)ccn2)nc1 [Compound 174] :: 0
Clc1cnc(Oc2ccccc2-c2cc(Cl)cnn2)nc1 [Compound 189] :: 0
CC(F)(F)c1cc(-c2ccccc2Oc2ncc(Cl)cn2)on1 [Compound 178] :: 20

For reference, reported Plant response rating, Barnyardgrass for Cn1cnc(-c2ccccc2Oc2ncc(Cl)cn2)n1 [Compound 115] stands at 0

For reference, reported Plant response rating, Barnyardgrass for Clc1cnc(Oc2ccccc2-c2ccsc2)nc1 [Compound 231] stands at 0

For reference, reported Plant response rating, Barnyardgrass for FC(F)(F)c1cc(-c2c(Cl)cccc2Oc2ncc(Cl)cn2)on1 [Compound 126] stands at 90

For reference, reported Plant response rating, Barnyardgrass for Cc1cnc(Oc2ccccc2-c2cc(C(F)F)no2)nc1 [Compound 211] stands at 10

For reference, reported Plant response rating, Barnyardgrass for Fc1ccc(-c2cc(C(F)(F)F)no2)c(Oc2ncc(Br)cn2)c1 [Compound 125] stands at 0
